Here, each record is paired with measured sensor-assay potency score (higher = more potent) data.
biological target: ETFB; experiment: pooled miR-30 sensor sort-seq; sequence = guide strand; details: shRNA; also: reference of the scale not given here
Measured Quantity: sensor-assay potency score (higher = more potent)

[
  {
    "Residues": "TCTGGTTACAGTCATCATCGAT",
    "Numeric Value": -0.57
  },
  {
    "Residues": "TCCCGCTCCACTTTCAACTTGT",
    "Numeric Value": -0.247
  },
  {
    "Residues": "TTCTCCTTCTCTGCCAGCTTGG",
    "Numeric Value": -1.27
  },
  {
    "Residues": "TCCGTGACCACACCGGTCCTGT",
    "Numeric Value": -1.31
  },
  {
    "Residues": "TTGATCACCTCGATCTTCTTCT",
    "Numeric Value": 0.521
  },
  {
    "Residues": "ATCACCTCGATCTTCTTCTTCT",
    "Numeric Value": -0.543
  },
  {
    "Residues": "TCGGTCTGCACCCATGGCCAGG",
    "Numeric Value": -1.71
  },
  {
    "Residues": "TTCTTGGCTTTCATGATGTTGG",
    "Numeric Value": -0.962
  },
  {
    "Residues": "TTGGCTTTCATGATGTTGGGCA",
    "Numeric Value": 0.503
  },
  {
    "Residues": "TTCATGGAGTGCTTCACACCAT",
    "Numeric Value": 0.145
  },
  {
    "Residues": "TTGGGCAGCGTGGCGTAGCGGG",
    "Numeric Value": -1.13
  },
  {
    "Residues": "TCCACTTTCAACTTGTCCCCCT",
    "Numeric Value": -0.169
  },
  {
    "Residues": "TCTCCTTGAGCCGCACAGCCTC",
    "Numeric Value": -1.05
  },
  {
    "Residues": "AAGCGTTCTGCTTCTGCTGGGG",
    "Numeric Value": -0.0454
  },
  {
    "Residues": "AAGAAATCCAGCTGTCATCTGC",
    "Numeric Value": 0.386
  },
  {
    "Residues": "TGGAGGTCAGGTCCACACCCAG",
    "Numeric Value": -1.98
  }
]

* * *

target: PGD; test: pooled miR-30 sensor sort-seq; sequence = guide strand; settings: shRNA
Recorded sensor-assay potency score (higher = more potent) by entry
Measured Quantity: sensor-assay potency score (higher = more potent)

[
  {
    "Residues": "TTTCTTATCACCATCAAACTGG",
    "Tested On": "PGD",
    "Numeric Value": -0.51
  },
  {
    "Residues": "TTCAGAGATGATAAGCACCGAG",
    "Tested On": "PGD",
    "Numeric Value": -0.0452
  },
  {
    "Residues": "TTTCCTAGGAATACACTTCTAA",
    "Tested On": "PGD",
    "Numeric Value": 0.166
  },
  {
    "Residues": "TAGGAGGTTCTGAAGTTCCGGG",
    "Tested On": "PGD",
    "Numeric Value": -0.239
  },
  {
    "Residues": "TTGGTGTGGATAAACTGCCCTG",
    "Tested On": "PGD",
    "Numeric Value": -0.35
  },
  {
    "Residues": "TTGAGCGTAAGAGATGATCTTG",
    "Tested On": "PGD",
    "Numeric Value": 0.0723
  },
  {
    "Residues": "TGACTTAAAGAAGTCGTCCAGT",
    "Tested On": "PGD",
    "Numeric Value": -0.436
  }
]
